# credit: patent US20190040115A1

Record form. Attribute: peptide exchange yield. Fill in for each entry.
EXPERIMENTAL_TARGET: T1, HLA-A*02:01 (human)
T1 construct: captured on streptavidin plates; also called peptide-receptive MHC molecules
ASSAY_DETAILS: UV peptide exchange ELISA (anti-b2m); yield grade: + >10%, ++ >20%, +++ >50, ++++ >75%

peptide exchange yield for `ILDDVAMVL` is 50 to 75%

peptide exchange yield for `TLVAFLQQV` is > 75%

peptide exchange yield for `LLDALQHEL` is 50 to 75%

peptide exchange yield for `EVVDKINQV` is 10 to 20%
